Target: T1, purified recombinant human folate receptor alpha (rh-FRα) (human, UniProt P15328 25-234)
T1 construct: One is secreted from CHO cells, with a human Ig kappa leader and a C-terminal 6x His tag replacing the GPI attachment site; The other is from Sf9 cells, with an N-terminal 6x His tag and the GPI site intact; also called FR-alpha; FOLR1
T1 sequence (P15328 25-234 limits assumed): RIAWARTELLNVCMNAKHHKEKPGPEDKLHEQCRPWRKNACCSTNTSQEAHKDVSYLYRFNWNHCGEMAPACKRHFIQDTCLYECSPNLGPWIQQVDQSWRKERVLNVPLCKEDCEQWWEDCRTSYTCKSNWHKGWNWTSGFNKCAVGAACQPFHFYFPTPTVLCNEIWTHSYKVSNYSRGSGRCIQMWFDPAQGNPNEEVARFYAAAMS
Assay: SPR, BIACORE T100, antibody captured on anti-mouse IgG, rh-FRα 1-30 nM as analyte, single-cycle kinetics, 1:1 fit
Quantity measured: Kd

Monoclonal antibody 19D4.B7 (antibody, mouse IgG2a, V domains shown, It was labelled with Ru (about 13 labels per IgG) when used as the detector in the ECL assays; also called ATCC PTA-11884) VH: GAELVKPGASVKLSCTASGFNIKHPYMHWVKQRPDQGLEWIGRIDPANGNTKYDPKFQGKATITADTSSNTAYLQLSSLTSEDTAVYYCGREEVADYTMDYWGQGTSVTVSS VL: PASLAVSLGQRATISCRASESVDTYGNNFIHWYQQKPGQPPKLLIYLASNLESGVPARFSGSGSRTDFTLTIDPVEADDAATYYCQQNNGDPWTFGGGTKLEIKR: 0.567 nM
Monoclonal antibody 24F12.B1 (antibody, mouse IgG1, V domains shown, also called ATCC PTA-11886) VH: SGGGLVRPGGSLKLSCAASGFTFSSYAMSWVRQSPEKRLEWVAEIGSGGSYTYYPDTVTGRFTISRDNAKSTLYLEMSSLRSEDTAIYYCARETTAGYFDYWGQGTTLTVSS VL: TSSLSASLGDRVTISCSASQGINNFLNWYQQKPDGTVKLLIYYTSSLHSGVPSRFSGSGSGTDYSLTISNLEPEDIAIYYCQHFSKLPWTFGGGTKLEIKR: 0.102 nM

query: # query: Kd of entry Monoclonal antibody 9F3.H9.H3.H3.B5.G2 (antibody, mouse IgG2a, V domains shown, also called ATCC PTA-11887) VH: ESGPGLVRPSQSLSLTCSVTGYSITSGYYWNWIRQFPGSRLEWMGYIKSDGSNNYNPSLKNRISITRDTSKNQFFLKLNSVTTEDTATYFCTREWKAMDYWGQGTSVTVSS VL: PAIMSASPGEKVTMTCRASSTVSYSYLHWYQQKSGASPQLWIYGTSNLASGVPARFSGSGSGTSYSLTISSVEAEDAATYYCQQYSGYPLTFGAGTKLELKR
result: 0.715 nM
